Entries annotated with measured % Phosphatase Activity (compared to DMSO) PRL-2
Biological target: recombinant PRL-2 (Homo sapiens, UniProt Q12974)
Construct: 6xHis (N, cleaved yes); made in house; host or cells: E. coli One Shot BL21 Star
Sequence (Q12974 whole entry): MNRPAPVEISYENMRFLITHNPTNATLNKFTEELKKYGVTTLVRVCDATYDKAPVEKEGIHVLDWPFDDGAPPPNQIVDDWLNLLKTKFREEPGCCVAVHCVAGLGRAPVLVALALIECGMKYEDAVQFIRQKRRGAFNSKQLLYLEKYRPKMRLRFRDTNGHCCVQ
Test: In vitro phosphatase assay (DiFMUP hydrolysis), PRL-2;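 note: PRL-2 activity read as DiFMUP hydrolysis after 20 min at room temperature with drug, enzyme first pre-reduced at 4 °C for 20 min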
Assay type: biochemical
Details: FDA-approved drug screen; compared to DMSO
Return type: number; implicit unit %.

compound | system | unit name | observed measurement
CO/N=C(\C(=O)N[C@@H]1C(=O)N2C(C(=O)O)=C(COC(C)=O)CS[C@H]12)c1csc(N)n1 [Cefotaxime sodium] | recombinant PRL-2 (Homo sapiens, UniProt Q12974) | % | 118

Q: Would you kindly share the measured % Phosphatase Activity (compared to DMSO) PRL-2 for CC#CCn1c(N2CCC[C@@H](N)C2)nc2c1c(=O)n(Cc1nc(C)c3ccccc3n1)c(=O)n2C [Linagliptin] ?
Ans: 131

Q: Would you kindly share the measured % Phosphatase Activity (compared to DMSO) PRL-2 for CN1CCN2c3ncccc3Cc3ccccc3C2C1 (stereo not shown) [Mirtazapine] ?
Ans: 114

Q: Would you kindly share the measured % Phosphatase Activity (compared to DMSO) PRL-2 for CCCCCC(=O)O[C@]1(C(C)=O)CC[C@H]2[C@@H]3CCC4=CC(=O)CC[C@]4(C)[C@H]3CC[C@@]21C [Hydroxyprogesterone caproate] ?
Ans: 84

Q: Would you kindly share the measured % Phosphatase Activity (compared to DMSO) PRL-2 for C[C@@H]1O[C@@H](OC[C@H]2O[C@@H](Oc3c(-c4ccc(O)c(O)c4)oc4cc(O)cc(O)c4c3=O)[C@H](O)[C@@H](O)[C@@H]2O)[C@H](O)[C@H](O)[C@H]1O [Rutin] ?
Ans: 82

Q: Would you kindly share the measured % Phosphatase Activity (compared to DMSO) PRL-2 for CO/N=C(\C(=O)N[C@@H]1C(=O)N2C(C(=O)O)=C(CSc3nnnn3C)CS[C@H]12)c1csc(N)n1.CO/N=C(\C(=O)N[C@@H]1C(=O)N2C(C(=O)O)=C(CSc3nnnn3C)CS[C@H]12)c1csc(N)n1.Cl [Cefmenoxime hydrochloride] ?
Ans: 98

Q: Would you kindly share the measured % Phosphatase Activity (compared to DMSO) PRL-2 for CC12CCC(CC1=O)C2(C)C (stereo not drawn) [(+)-Camphor] ?
Ans: 132

###

Entries annotated with measured % Phosphatase Activity (compared to DMSO) PRL-3
Biological target: recombinant PRL-3 (Homo sapiens)
Construct: 6xHis (N, cleaved yes); made in house; host or cells: E. coli One Shot BL21 Star
Sequence (O75365 whole entry): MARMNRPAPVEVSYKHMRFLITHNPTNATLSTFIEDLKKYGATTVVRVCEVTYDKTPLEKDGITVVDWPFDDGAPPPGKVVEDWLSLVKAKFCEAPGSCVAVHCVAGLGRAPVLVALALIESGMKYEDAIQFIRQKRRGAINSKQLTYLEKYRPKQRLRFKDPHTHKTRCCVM
Test: In vitro phosphatase assay (DiFMUP hydrolysis), PRL-3; note: test concentration or dose not given here
Type: biochemical
Details: FDA-approved drug screen; compared to DMSO
Return type: number; implicit unit %.

Q: Would you kindly share the measured % Phosphatase Activity (compared to DMSO) PRL-3 for "Cc1cccc(C)c1NC(=O)CN1CCCC1=O" ?
Ans: 88

Q: Would you kindly share the measured % Phosphatase Activity (compared to DMSO) PRL-3 for "CC(C)(CO)[C@@H](O)C(=O)NCCCO" ?
Ans: 90

Q: Would you kindly share the measured % Phosphatase Activity (compared to DMSO) PRL-3 for "CC1=C(C(=O)O)N2C(=O)[C@@H](NC(=O)[C@H](N)C3=CCC=CC3)[C@H]2SC1" ?
Ans: 102

Q: Would you kindly share the measured % Phosphatase Activity (compared to DMSO) PRL-3 for "CCOC(=O)[C@H]1O[C@@H]1C(=O)N[C@@H](CC(C)C)C(=O)NCCC(C)C" ?
Ans: 86
